system: non-tumorigenic lung fibroblast cells (MRC-5); experiment: Cell proliferation assay (CellTiter-Glo), MRC-5; type: cell-based, human; details: Homo sapiens, MRC5, 72 h incubation, read-out: Half maximal inhibitory concentration (IC50), MRC-5 Cell Line
// reported IC50 per item
Measurement kind: IC50

[[record]]
compound = "O=C(O)c1cc(O)c(O)c(O)c1"
measurement_kind = "IC50"
reported_measurement = "48.2 µM"

[[record]]
compound = "Oc1cc(O)c2c(c1)O[C@H](c1ccc(O)c(O)c1)[C@H](O)C2 [(−)-Epicatechin]"
measurement_kind = "IC50"
reported_measurement = "> 250 µM"

[[record]]
compound = "O=C(O)C=Cc1ccc(O)cc1"
measurement_kind = "IC50"
reported_measurement = "> 250 µM"


---

assay: Total antioxidant capacity (TAC) colorimetric assay; conditions: linear regression of dose-response, 7 concentrations; Cu2+ reagent, 1.5 h, absorbance 570 nm
// reported Slope (in Trolox Equivalents) per item
Measurement kind: Slope (in Trolox Equivalents)

[[record]]
molecule = "O=c1oc2c(O)c(O)cc3c(=O)oc4c(O)c(O)cc1c4c23 [Ellagic acid]"
measurement_kind = "Slope (in Trolox Equivalents)"
reported_measurement = "0.0005183 ± 2.860 × 10^−5"

[[record]]
molecule = "COc1cc(C(=O)O)ccc1O [Vanillic acid]"
measurement_kind = "Slope (in Trolox Equivalents)"
reported_measurement = "0.0007396 ± 4.245 × 10^−5"

[[record]]
molecule = "O=C(O)c1cc(O)c(O)c(O)c1 [Gallic acid]"
measurement_kind = "Slope (in Trolox Equivalents)"
reported_measurement = "0.002541 ± 1.392 × 10^−5"

[[record]]
molecule = "Oc1cc(O)c2c(c1)O[C@H](c1ccc(O)c(O)c1)[C@@H](O)C2 [(+)-Catechin]"
measurement_kind = "Slope (in Trolox Equivalents)"
reported_measurement = "0.002029 ± 3.184 × 10^−5"

[[record]]
molecule = "O=C(O[C@@H]1Cc2c(O)cc(O)cc2O[C@@H]1c1ccc(O)c(O)c1)c1cc(O)c(O)c(O)c1 [Epicatechin gallate]"
measurement_kind = "Slope (in Trolox Equivalents)"
reported_measurement = "0.004294 ± 1.570 × 10^−4"

